# assay-protocol: Dyad photophysical properties in toluene, excited at 405 nm
# Assay type: physicochemical
# condition-label: room temperature
observation-type: abs max Qy (nm)

compound	abs max Qy, nm
COC(=O)c1ccc(-c2c3nc(cc4ccc(cc5nc(cc6[nH]c2cc6C#Cc2ccc(-c6c7nc(cc8ccc([nH]8)c(-c8c(C)cc(C)cc8C)c8nc(cc9ccc6[nH]9)C=C8)C=C7)cc2)CC5(C)C)[nH]4)C=C3)cc1	659
COC(=O)c1ccc(C#Cc2cc3cc4nc(cc5[nH]c(cc6nc(c(OC)c2[nH]3)CC6(C)C)cc5C#Cc2ccc(-c3c5nc(cc6ccc(cc7nc(cc8ccc3[nH]8)C=C7)[nH]6)C=C5)cc2)CC4(C)C)cc1 [Dyad P1-BC1]	760
COC(=O)c1ccc(-c2c3nc(cc4[nH]c(cc5nc(cc6[nH]c2cc6C#Cc2ccc(-c6c7nc(cc8ccc(cc9nc(cc%10ccc6[nH]%10)C=C9)[nH]8)C=C7)cc2)CC5(C)C)cc4C#Cc2ccc(-c4c5nc(cc6ccc(cc7nc(cc8ccc4[nH]8)C=C7)[nH]6)C=C5)cc2)C=C3)cc1 [Dyad P1-C6]	680
COC(=O)c1ccc(-c2c(C(=O)OC)c3cc4nc(cc5[nH]c(c(OC)c6nc(cc2[nH]3)C(C)(C)C6)c(C(=O)OC)c5C#Cc2ccc(C3=C5C=CC(=N5)C=c5ccc6[n]5[Zn][n]5c(ccc53)C=C3C=CC(=N3)C=6)cc2)C(C)(C)C4)cc1	769

###

# assay-protocol: Dyad photophysical properties in toluene, excited at 405 nm
# Assay type: physicochemical
# condition-label: room temperature
observation-type: abs max Qx (nm)

compound	abs max Qx (nm)
COC(=O)c1ccc(-c2c3nc(cc4[nH]c(cc5nc(cc6[nH]c2cc6-c2ccc(CNC(=O)c6ccc(-c7c8nc(cc9ccc([nH]9)c(-c9c(C)cc(C)cc9C)c9nc(cc%10ccc7[nH]%10)C=C9)C=C8)cc6)cc2)CC5(C)C)cc4-c2ccccc2)C=C3)cc1 [Dyad P3-C1]	505
COC(=O)c1ccc(-c2c3nc(cc4[nH]c(cc5nc(cc6[nH]c2cc6-c2ccc(CNC(=O)c6ccc(C7=C8C=CC(=N8)C=c8ccc9[n]8[Zn][n]8c(ccc87)C=C7C=CC(=N7)C=9)cc6)cc2)CC5(C)C)cc4-c2ccccc2)C=C3)cc1 [P2-C1, methyl ester]	533
COC(=O)c1ccc(-c2c3nc(cc4ccc(cc5nc(cc6[nH]c2cc6C#Cc2ccc(CNC(=O)c6ccc(-c7c8nc(cc9ccc([nH]9)c(-c9c(C)cc(C)cc9C)c9nc(cc%10ccc7[nH]%10)C=C9)C=C8)cc6)cc2)CC5(C)C)[nH]4)C=C3)cc1 [Dyad P5-C3]	504
COC(=O)c1ccc(C#Cc2cc3cc4nc(cc5[nH]c(cc6nc(c(OC)c2[nH]3)CC6(C)C)cc5C#Cc2ccc(-c3c5nc(cc6ccc(cc7nc(cc8ccc3[nH]8)C=C7)[nH]6)C=C5)cc2)CC4(C)C)cc1 [Dyad P1-BC1]	529
COC(=O)c1ccc(-c2c3nc(cc4ccc(cc5nc(cc6[nH]c2cc6C#Cc2ccc(CNC(=O)c6ccc(C7=C8C=CC(=N8)C=c8ccc9[n]8[Zn][n]8c(ccc87)C=C7C=CC(=N7)C=9)cc6)cc2)CC5(C)C)[nH]4)C=C3)cc1 [Dyad P4-C3]	532
COC(=O)c1ccc(-c2c3nc(cc4[nH]c(cc5nc(cc6[nH]c2cc6C#Cc2ccc(-c6c7nc(cc8ccc(cc9nc(cc%10ccc6[nH]%10)C=C9)[nH]8)C=C7)cc2)CC5(C)C)cc4C#Cc2ccc(-c4c5nc(cc6ccc(cc7nc(cc8ccc4[nH]8)C=C7)[nH]6)C=C5)cc2)C=C3)cc1 [Dyad P1-C6]	499
COC(=O)c1c(C#Cc2ccc(-c3c4nc(cc5ccc(cc6nc(cc7ccc3[nH]7)C=C6)[nH]5)C=C4)cc2)c2cc3nc(c(OC)c4[nH]c(cc5nc(cc1[nH]2)CC5(C)C)c(C#Cc1ccc(-c2c5nc(cc6ccc(cc7nc(cc8ccc2[nH]8)C=C7)[nH]6)C=C5)cc1)c4C(=O)OC)CC3(C)C [Dyad P1-BC2]	499
COC(=O)c1ccc(-c2c(C(=O)OC)c3cc4nc(cc5[nH]c(c(OC)c6nc(cc2[nH]3)C(C)(C)C6)c(C(=O)OC)c5C#Cc2ccc(C3=C5C=CC(=N5)C=c5ccc6[n]5[Zn][n]5c(ccc53)C=C3C=CC(=N3)C=6)cc2)C(C)(C)C4)cc1 [Dyad P8-BC2]	538
